- SYSTEM: T1, recombinant biotinylated human CD137 protein (Fc-fusion protein, R&D Systems 838-4B) (human, UniProt Q07011 24-186, biotinylated (site not stated))
- T1 construct: Bought Fc fusion; The ELISA used the same antigen as the panning; also called CD137-Fc; biotinylated CD137; not shown: Fc part of the bought fusion protein
- ASSAY_METHOD_TEXT: ELISA, bacterial lysate on plate-bound antigen, luminescence
- Method: Streptavidin-coated Maxisorp plates (Nunc catalog 436110) were blocked for 1 h in Starting Block T20 (Pierce) and then coated with biotinylated CD137 (using same antigen as in panning) or negative controls (an unrelated Fc-fused recombinant protein and human serum albumin) for 1 h. Plates were rinsed with TBST and diluted lysate was applied to plates for 1 h. […]
Entries and their ELISA CD137-Fc (RLU)
PROPERTY_MEASURED: ELISA CD137-Fc (RLU)

binder="ISOP120BR5P1D2 (designed binder, not shown: small tags and cut ends, FN3 domain (Centyrin); tested as E. coli lysate) LPAPKNLVVSRVTEDSARLSWIRKHNHVKWFDSFLIQYQESEKVGEAIVLTVPGSERSYDLTGLKPGTEYTVSIYGVGFLIDTDDSNPLSAIFTT" output_unit=RLU readout_number=361000
binder="ISOP120FR5P1H6 (designed binder, not shown: small tags and cut ends, FN3 domain (Centyrin); tested as E. coli lysate) LPAPKNLVVSRVTEDSARLSWTAPDAAFDSFGIPYLEDIEVGEAIVLTVPGSERSYDLAGLKPGTEYHVGIYGVKGGEQSFPLSAIFTT" output_unit=RLU readout_number=357000
